Ok so here's the combined literature set: Ki for Tyrosine-protein kinase JAK1 (Homo sapiens).
assay-readout: Ki (nM)

Form field Ki, entry "COc1ccc(Cl)cc1-c1nc(C)sc1NC(=O)c1cnn2cccnc12" : 0.99

I: COc1ccc(Cl)cc1-c1nn(C)cc1NC(=O)c1cncc2c[nH]nc12
II: OCc1nc2cnc3[nH]ccc3c2n1C1CCCCC1
III: CC(C)CS(=O)(=O)NCc1nc2cnc3[nH]ccc3c2n1C1CCN(CCC#N)CC1
Enquiry: Which order do these items take when sorted by rising Ki? List them. In your reply, arrange the labels in the requested order.
Return: I, II, III

----------
pKi: −log10 of the molar value.
Ok so here's the combined literature set: pKi for Tyrosine-protein kinase JAK1 (Homo sapiens).
assay-readout: pKi

1: COc1cc(O)c(Cl)cc1-c1n[nH]cc1NC(=O)c1cnn2cccnc12
2: CCCc1nc2cnc3[nH]ccc3c2n1C1CCN(CCC#N)CC1
Enquiry: Which has the higher pKi, 1 or 2 ? Answer format: the label of the selected item.
Return: 1

a: CC(C)c1nc2cnc3[nH]ccc3c2n1C1CCN(CCC#N)CC1
b: C[C@@H](O)c1nc2cnc3[nH]ccc3c2n1C1CCOCC1
Enquiry: For the pair a and b , which member has the lower pKi number? Answer format: the label of the selected item.
Return: b

I: c1cc2c(ncc3nnn(CC4CCNCC4)c32)[nH]1
II: CS(=O)(=O)NCc1nc2cnc3[nH]ccc3c2n1C1CC2CCC1O2 (racemic)
Enquiry: Which has the higher pKi, I or II ? Answer format: the label of the selected item.
Return: II
(II: 7.55, I: 6.13)

P: O=C(Nc1c[nH]nc1-c1cc(I)ccc1OC(F)F)c1cnn2cccnc12
Q: Cc1ccc(OC(F)F)c(-c2n[nH]cc2NC(=O)c2cnn3cccnc23)c1
R: c1ccc(CN2CCC(n3nnc4cnc5[nH]ccc5c43)CC2)cc1
S: O=C(Nc1c[nH]nc1-c1cc(Cl)ccc1SC(F)F)c1cnn2cccnc12
T: C[C@@H](O)c1nc2cnc3[nH]ccc3c2n1[C@H]1CCCOC1
Enquiry: // sort entries: pKi, high to low In your reply, arrange the labels in the requested order.
Return: P, S, Q, T, R

I: CC(=O)NCCc1nc2cnc3[nH]ccc3c2n1C1CCN(CCC#N)CC1
II: O=C(Nc1c[nH]nc1-c1cc(Cl)ccc1OC(F)(F)F)c1cnn2cccnc12
Enquiry: For the pair I and II , which member has the lower pKi number? Answer format: the label of the selected item.
Return: I
(I: 8.43, II: 8.68)

A: O=C(Nc1c[nH]nc1-c1cc(Cl)ccc1OC(F)F)c1cnn2cc(F)cnc12
B: CS(=O)(=O)NCCc1nc2cnc3[nH]ccc3c2n1C1CCN(CCC#N)CC1
Enquiry: For the pair A and B , which member has the lower pKi number? Answer format: the label of the selected item.
Return: A
(A: 8.11, B: 8.77)

P: N#CCCN1CCC(n2c(CCn3cccn3)nc3cnc4[nH]ccc4c32)CC1
Q: O=C(Nc1c[nH]nc1-c1cc(F)ccc1OC(F)F)c1cnn2cccnc12
Enquiry: For the pair P and Q , which member has the lower pKi number? Answer format: the label of the selected item.
Return: P

a: Cc1nc(-c2cc(Cl)ccc2OC(F)F)c(NC(=O)c2cnn3cccnc23)[nH]1
b: O=C(Nc1c[nH]nc1-c1cc(Cl)ccc1OC(F)F)c1cncc2c[nH]nc12
c: F[C@@H]1CNCC[C@H]1n1nnc2cnc3[nH]ccc3c21 (racemic)
Enquiry: // sort entries: pKi, high to low In your reply, arrange the labels in the requested order.
Return: b, a, c
